measured on: Human P2Y12 receptor (Homo sapiens, UniProt Q9H244)
Construct: expressed in transfected cells; host or cells: HEK cells
Sequence (Q9H244 whole entry): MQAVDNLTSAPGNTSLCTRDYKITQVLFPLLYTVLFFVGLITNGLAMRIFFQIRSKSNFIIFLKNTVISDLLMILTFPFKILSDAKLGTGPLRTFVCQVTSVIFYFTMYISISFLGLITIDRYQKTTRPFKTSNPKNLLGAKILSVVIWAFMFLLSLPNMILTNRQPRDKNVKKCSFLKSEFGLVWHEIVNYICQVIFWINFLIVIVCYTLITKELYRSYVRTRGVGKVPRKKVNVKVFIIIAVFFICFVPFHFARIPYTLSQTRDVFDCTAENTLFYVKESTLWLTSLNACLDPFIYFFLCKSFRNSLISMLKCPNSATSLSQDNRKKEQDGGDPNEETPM
assay: Human P2Y12 receptor cell membrane binding assay with [3H] 2-Mes-ADP
condition details: 1 nM [3H] 2-Mes-ADP, membranes of HEK cells expressing P2Y12 receptor; read-out: Binding activity (IC50)
Experimental: Human P2Y12 Receptor Cell Membrane Binding Assay with [^3H] 2-Mes-ADP Whether test compounds bind to P2Y12 receptor is measured by [3H]-2MesADP binding in HEK cells expressing P2Y12 receptor. […] The volume of 100 μL of 200 μg membrane protein was aliquoted into 96 well plate. […] Radioactivity bound to P2Y12 receptor membrane was counted in a scintillation counter. […]
measured attribute: pIC50
Entry type: numeric. Quantity: pIC50, the -log10 of concentration in molar units.

See these solved cases before continuing.
molecule: CCCc1cc2c(N3CCn4c(nnc4C(F)(F)F)C3)nc(N3CC[C@@H](C(=O)OCOC(=O)C(C)(C)C)C3)nc2s1
pIC50: 6.28
--
molecule: CCCCc1cc2c(N3CCn4c(nnc4C(F)(F)F)C3)nc(N3CCN(C)CC3)nc2s1
pIC50: 6.73
--
molecule: CCCc1cc2c(N3CCn4c(nnc4C(F)(F)F)C3)nc(Cc3nc(C(=O)O)cs3)nc2s1
pIC50: 6.52
--
molecule: CCCc1cc2c(N3CCn4c(nnc4C(F)(F)F)C3)nc(-c3nnc(C)o3)nc2s1
pIC50: 6.64
--
molecule: CCCc1cc2c(N3CCn4c(nnc4C(F)(F)F)C3)nc(Oc3cccc(N4CCNCC4)c3)nc2s1
pIC50: 5.72

[ask] Fill in the blank: the reported pIC50 of CCCc1cc2c(N3CCn4c(nnc4C(F)(F)F)C3)nc(N(C)C)nc2s1 is ____.
[reply] 6.77

[ask] Item under review: CCc1cc2c(N3CCn4c(nnc4C(F)(F)F)C3)nc(N3CCNC(=O)C3)nc2s1 . Reported pIC50?
[reply] 7.01

[ask] What value of pIC50 has been reported for the following molecule? CCCc1cc2c(N3CCn4c(nnc4C(F)(F)F)C3)nc(N3CCCC(O)C3)nc2s1 (centres unmarked)
[reply] 7.25

These entries and their values trace back to patent US20110166121A1.
